Where do these numbers come from? They come from the supplement of paper PMC10065799.

Parameter: phosphorylation enrichment. Scope: all listed entries.
# TEST SYSTEM: Fyn (UniProt P06241)
# Sequence (P06241 whole entry, looked up): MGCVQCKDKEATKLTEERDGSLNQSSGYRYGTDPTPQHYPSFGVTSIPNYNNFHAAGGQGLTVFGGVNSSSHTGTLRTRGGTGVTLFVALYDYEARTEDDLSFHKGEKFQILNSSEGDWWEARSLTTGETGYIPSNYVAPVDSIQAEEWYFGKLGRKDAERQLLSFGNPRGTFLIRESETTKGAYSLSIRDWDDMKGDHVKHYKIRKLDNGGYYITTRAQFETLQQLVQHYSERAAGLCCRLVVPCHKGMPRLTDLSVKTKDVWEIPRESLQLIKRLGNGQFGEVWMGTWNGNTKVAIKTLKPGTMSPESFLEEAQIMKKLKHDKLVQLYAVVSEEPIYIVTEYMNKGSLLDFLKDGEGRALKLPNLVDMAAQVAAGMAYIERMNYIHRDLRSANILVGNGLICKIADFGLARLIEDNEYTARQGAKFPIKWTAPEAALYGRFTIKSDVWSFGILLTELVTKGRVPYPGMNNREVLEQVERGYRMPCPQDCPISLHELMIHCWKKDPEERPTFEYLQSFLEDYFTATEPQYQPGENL
# ASSAY NAME: phosphorylation enrichment, bacterial display (enrichment ratio); higher = better substrate or ligand; peptides without Tyr show the background;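 also: 11-residue human phosphosite peptides and single-mutation variants displayed on the E. coli surface, counted by deep sequencing, each peptide's frequency after selection divided by its frequency in the unselected input library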;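 also: frequency after pTyr selection over input frequency; kinase dosed for 20-30% of maximal phosphorylation in three min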
Note: the reply should be a number with no unit written.

> print(dat)
             biopolymer.sequence                    property  test.value
1   TCRPPYYHRNC [HGD_Y333_F329C]  phosphorylation enrichment       0.093
2  SVTCTYSPALK [TP53_Y126_N131K]  phosphorylation enrichment       0.467
3        GQRDLYSGLNQ [CD3E_Y199]  phosphorylation enrichment        6.14

As a next step, examine the sequence that follows.
Asked: // query phosphorylation enrichment value for entry YSNVLYRPRGP [TMIGD2_Y197_A202P]
Given back: 0.501
